meta.source: ChEMBL document CHEMBL1144238

# system under test: UniProt P18825
# Sequence (P18825 whole entry): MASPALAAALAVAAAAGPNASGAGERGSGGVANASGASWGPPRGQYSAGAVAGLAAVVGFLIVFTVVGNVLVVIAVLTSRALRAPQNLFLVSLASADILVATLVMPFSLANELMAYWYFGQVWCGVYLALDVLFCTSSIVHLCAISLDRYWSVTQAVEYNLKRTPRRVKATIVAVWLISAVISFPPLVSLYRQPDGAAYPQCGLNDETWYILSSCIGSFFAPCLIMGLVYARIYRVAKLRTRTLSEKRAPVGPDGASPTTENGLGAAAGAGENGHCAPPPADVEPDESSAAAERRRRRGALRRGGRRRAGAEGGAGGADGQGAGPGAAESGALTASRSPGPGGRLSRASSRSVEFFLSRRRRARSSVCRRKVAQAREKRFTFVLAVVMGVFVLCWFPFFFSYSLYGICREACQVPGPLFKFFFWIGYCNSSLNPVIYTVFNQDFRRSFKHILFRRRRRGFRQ
# procedure details: Binding affinity at human recombinant adrenergic Alpha-2C receptor expressed in CHO cells by radioligand binding assay
# Format: cell-based
pKi: −log10 of the molar value.
Below is a list of entries, each paired with its recorded pKi value.

>  <compound>
c1ccc(CN2CCN(CC3COc4ccccc4C3)CC2)cc1 (centres undefined)

>  <reading qualifier>
<

>  <pKi>
6.30

$$$$
>  <compound>
CCCCOc1cccc(C(=O)NCCN2CCCN(CC3COc4ccccc4O3)CC2)n1 (centres undefined)

>  <reading qualifier>
=

>  <pKi>
9.22

$$$$
>  <compound>
O=C(NCCN1CCN(CC2COc3ccccc3O2)CC1)c1cccnc1Oc1ccccc1 (centres undefined)

>  <reading qualifier>
=

>  <pKi>
8.52

$$$$
>  <compound>
COc1ccccc1N1CCN(CC2COc3ccccc3O2)CC1 (centres undefined)

>  <reading qualifier>
=

>  <pKi>
7.48

$$$$
